Biological target: GP IIb/IIIa (Homo sapiens, UniProt P05106+P08514)
Sequence (P08514 32-887 limits assumed): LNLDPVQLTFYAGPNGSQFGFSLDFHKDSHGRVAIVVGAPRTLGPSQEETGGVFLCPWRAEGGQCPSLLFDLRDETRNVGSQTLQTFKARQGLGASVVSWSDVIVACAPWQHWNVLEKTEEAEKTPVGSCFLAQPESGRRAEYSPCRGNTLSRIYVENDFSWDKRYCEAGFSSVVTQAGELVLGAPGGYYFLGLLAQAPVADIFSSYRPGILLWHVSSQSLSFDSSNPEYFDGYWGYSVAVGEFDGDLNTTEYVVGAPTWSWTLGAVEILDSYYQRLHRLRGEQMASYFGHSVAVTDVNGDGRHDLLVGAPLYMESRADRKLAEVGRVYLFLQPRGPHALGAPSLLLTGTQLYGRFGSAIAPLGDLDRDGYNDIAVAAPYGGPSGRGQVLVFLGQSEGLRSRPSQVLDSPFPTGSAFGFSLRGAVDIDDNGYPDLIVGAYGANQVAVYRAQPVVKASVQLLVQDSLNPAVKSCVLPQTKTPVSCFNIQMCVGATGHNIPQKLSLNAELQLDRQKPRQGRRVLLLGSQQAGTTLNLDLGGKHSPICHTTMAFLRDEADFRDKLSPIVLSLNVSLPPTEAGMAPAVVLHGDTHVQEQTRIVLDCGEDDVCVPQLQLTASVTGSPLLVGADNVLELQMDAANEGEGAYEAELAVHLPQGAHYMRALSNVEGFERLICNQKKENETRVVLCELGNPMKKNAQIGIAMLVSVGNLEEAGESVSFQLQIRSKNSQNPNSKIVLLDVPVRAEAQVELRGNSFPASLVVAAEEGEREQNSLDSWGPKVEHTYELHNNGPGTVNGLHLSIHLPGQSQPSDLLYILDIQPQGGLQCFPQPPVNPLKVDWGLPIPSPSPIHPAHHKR
Sequence (P08514 891-1039 partner limits assumed): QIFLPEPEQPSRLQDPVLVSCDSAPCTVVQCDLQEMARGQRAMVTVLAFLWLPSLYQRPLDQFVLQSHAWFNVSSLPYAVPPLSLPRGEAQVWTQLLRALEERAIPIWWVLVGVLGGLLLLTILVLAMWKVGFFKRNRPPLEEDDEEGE
Sequence (P05106 27-788): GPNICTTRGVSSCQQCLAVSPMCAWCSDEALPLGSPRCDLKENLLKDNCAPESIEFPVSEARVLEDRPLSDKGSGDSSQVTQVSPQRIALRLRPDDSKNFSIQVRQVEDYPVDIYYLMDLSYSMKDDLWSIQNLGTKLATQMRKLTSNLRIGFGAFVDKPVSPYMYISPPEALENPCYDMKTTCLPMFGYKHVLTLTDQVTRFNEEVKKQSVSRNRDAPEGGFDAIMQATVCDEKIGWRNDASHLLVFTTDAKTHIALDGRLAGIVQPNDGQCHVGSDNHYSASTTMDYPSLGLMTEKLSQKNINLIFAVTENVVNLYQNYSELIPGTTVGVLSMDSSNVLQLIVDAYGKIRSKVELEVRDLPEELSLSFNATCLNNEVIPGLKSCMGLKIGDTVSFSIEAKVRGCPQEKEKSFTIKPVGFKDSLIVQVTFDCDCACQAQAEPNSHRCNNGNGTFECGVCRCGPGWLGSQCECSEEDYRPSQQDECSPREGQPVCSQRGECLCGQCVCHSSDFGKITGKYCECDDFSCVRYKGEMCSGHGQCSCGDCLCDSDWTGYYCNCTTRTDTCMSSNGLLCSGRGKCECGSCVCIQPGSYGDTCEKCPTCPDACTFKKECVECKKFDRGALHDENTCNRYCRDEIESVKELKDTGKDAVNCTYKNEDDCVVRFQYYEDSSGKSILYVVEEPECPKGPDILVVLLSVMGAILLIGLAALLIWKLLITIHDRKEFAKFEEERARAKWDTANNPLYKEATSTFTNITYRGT
Assay: In Vitro Solid Phase Purified GP IIb/IIIa Binding Assay (biotinylated fibrinogen)
Details: biotinylated fibrinogen binding to immobilized purified GP IIb/IIIa; mean ± spread; read-out: αIIbβ3 IC50
pIC50: −log10 of the molar value.
Assay readout: pIC50

- CCNc1cccc(C(CC(=O)O)CC2CCN(C(=O)CCc3ccc4c(n3)NCCC4)CC2)c1 (racemic): 4.61
- COc1ccc(C(CC(=O)O)C2CCN(C(=O)CCCc3ccc4c(n3)NCCC4)CC2)cn1 (centres unmarked): 5.18
- O=C(O)CC(CC1CCN(C(=O)CCc2ccc3c(n2)NCCC3)CC1)c1cncc2ccccc12 (centres unmarked): 5.26

A: O=C(O)CC(CCC1CCN(C(=O)CCCNc2ccccn2)CC1)c1cccnc1 (centres unmarked)
B: O=C(O)CC(CCC1CCN(C(=O)c2cccc(NC3=NCC(O)CN3)c2)CC1)c1cccnc1 (centres unmarked)
Between A and B , which one shows the larger pIC50 value? Write down the label of the entry you select.
B

----------
Biological target: GP IIb/IIIa (Homo sapiens, UniProt P05106+P08514)
Experiment: In Vitro Solid Phase Purified GP IIb/IIIa Binding Assay (biotinylated fibrinogen)
Conditions: biotinylated fibrinogen binding to immobilized purified GP IIb/IIIa; mean ± spread; read-out: αIIbβ3 IC50
Protocol: In Vitro Solid Phase Purified GP IIb/IIIa Binding Assay The plate was covered and incubated overnight at 4° C. The GP IIb/IIIa solution was discarded and 150 μL of 5% BSA was added and incubated at RT for 1-3 h. The plate was washed extensively with modified Tyrodes buffer. Biotinylated fibrinogen (25 μL/well) at 2× final concentration was added to the wells that contain the test compounds (25 μL/well). The plate was covered and incubated at RT for 2-4 h. […]
pIC50: −log10 of the molar value.
Assay readout: pIC50

- O=C(O)CC(CC1CCN(C(=O)CCc2ccc3c(n2)NCCC3)CC1)c1ccc2ccccc2c1 (single isomer, unassigned) [Cpd 56a]: 4.83
- O=C(O)CCC1CCN(C(=O)Cc2cccc(NC3=NCCCN3)c2)CC1: 5.36
- O=C(O)CC(CC1CCN(C(=O)CCCc2ccc3c(n2)NCCC3)CC1)c1cnc2ccccc2c1 (stereo not shown): 5.76

I: COc1cc(C(CC(=O)O)CC2CCN(C(=O)CCc3ccc4c(n3)NCCC4)CC2)ccc1O (racemic) [Cpd 76]
II: O=C(O)CC(CC1CCN(C(=O)CCc2ccc3c(n2)NCCC3)CC1)c1cccc(F)c1 (single isomer, unassigned) [Cpd 30a]
Between I and II , which one shows the larger pIC50 value? Write down the label of the entry you select.
II
(II: 5.53, I: 5.27)

----------
Here the recorded IC50 is given for each entry.
Biological target: GP IIb/IIIa (Homo sapiens, UniProt P05106+P08514)
Test: In Vitro Solid Phase Purified GP IIb/IIIa Binding Assay (biotinylated fibrinogen)
Details: biotinylated fibrinogen binding to immobilized purified GP IIb/IIIa; mean ± spread; read-out: αIIbβ3 IC50
Procedure: In Vitro Solid Phase Purified GP IIb/IIIa Binding Assay The plate was covered and incubated overnight at 4° C. The GP IIb/IIIa solution was discarded and 150 μL of 5% BSA was added and incubated at RT for 1-3 h. The plate was washed extensively with modified Tyrodes buffer. Biotinylated fibrinogen (25 μL/well) at 2× final concentration was added to the wells that contain the test compounds (25 μL/well). The plate was covered and incubated at RT for 2-4 h. […]

• CC(C)OC(=O)CCCC1CCN(C(=O)CCc2ccc3c(n2)NCCC3)CC1 [Cpd 69] = > 50 µM
• COc1ccc(C(CC(=O)O)CC2CCN(C(=O)CCc3ccc4c(n3)NCCC4)CC2)cn1 (single isomer, unassigned) [Cpd 28b] = 24.3 µM
• NC(=O)CC(CC1CCN(C(=O)CCc2ccc3c(n2)NCCC3)CC1)c1cccc(F)c1 (racemic) [Cpd 64] = > 50 µM
• CN1CC(C(CC(=O)O)CC2CCN(C(=O)CCc3ccc4c(n3)NCCC4)CC2)Cc2ccccc21 (racemic) [Cpd 67] = 7.82 µM
• O=C(O)CC(CC1CCN(C(=O)CCc2ccc3c(n2)NCCC3)CC1)c1cccc(F)c1 (single isomer, unassigned) [Cpd 30b] = > 50 µM

Form field: reported IC50 of O=C(O)CC(CC1CCN(C(=O)CCc2ccc3c(n2)NCCC3)CC1)c1ccc2c(c1)OCC2 (single isomer, unassigned) [Cpd 36b]
> 50 µM

Form field: reported IC50 of CC(C)(C)C(=O)OCOC(=O)CCCC1CCN(C(=O)CCc2ccc3c(n2)NCCC3)CC1 [Cpd 74]
> 50 µM

Form field: reported IC50 of O=C(O)CC(CC1CCN(C(=O)CCCc2ccc3c(n2)NCCC3)CC1)c1ccc(F)cc1 (centres unmarked) [Cpd 34]
> 50 µM

----------
Target: human purified αVβ5 (Homo sapiens, UniProt P06756+P18084)
Construct: purchased Chemicon International, Inc
Sequence (P06756 31-889 limits assumed): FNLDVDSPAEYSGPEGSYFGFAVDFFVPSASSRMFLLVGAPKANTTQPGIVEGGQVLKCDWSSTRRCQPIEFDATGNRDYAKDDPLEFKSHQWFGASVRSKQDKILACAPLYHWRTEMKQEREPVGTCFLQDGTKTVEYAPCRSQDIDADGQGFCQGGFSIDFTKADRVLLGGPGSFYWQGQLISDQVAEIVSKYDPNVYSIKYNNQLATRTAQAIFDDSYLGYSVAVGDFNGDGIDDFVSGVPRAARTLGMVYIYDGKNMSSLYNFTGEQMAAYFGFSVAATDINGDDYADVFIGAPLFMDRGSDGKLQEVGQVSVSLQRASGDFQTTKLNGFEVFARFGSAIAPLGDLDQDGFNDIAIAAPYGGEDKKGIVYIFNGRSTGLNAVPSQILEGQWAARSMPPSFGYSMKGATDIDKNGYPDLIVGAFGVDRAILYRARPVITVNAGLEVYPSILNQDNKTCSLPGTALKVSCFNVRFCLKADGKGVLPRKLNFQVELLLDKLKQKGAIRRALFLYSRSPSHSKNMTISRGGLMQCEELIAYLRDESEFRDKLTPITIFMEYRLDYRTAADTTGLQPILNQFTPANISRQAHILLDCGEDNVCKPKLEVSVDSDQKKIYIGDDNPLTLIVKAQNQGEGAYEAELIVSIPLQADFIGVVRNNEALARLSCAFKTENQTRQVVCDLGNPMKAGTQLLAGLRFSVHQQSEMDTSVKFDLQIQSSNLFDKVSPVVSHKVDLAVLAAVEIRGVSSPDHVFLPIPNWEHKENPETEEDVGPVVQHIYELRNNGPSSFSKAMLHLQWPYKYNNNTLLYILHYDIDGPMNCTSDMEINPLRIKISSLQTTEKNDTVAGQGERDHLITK
Sequence (P06756 891-1048 partner limits assumed): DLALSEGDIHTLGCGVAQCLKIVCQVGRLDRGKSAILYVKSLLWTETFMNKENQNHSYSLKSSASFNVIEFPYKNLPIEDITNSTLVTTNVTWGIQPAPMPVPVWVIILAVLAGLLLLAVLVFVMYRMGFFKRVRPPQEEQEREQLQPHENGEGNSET
Sequence (P18084 24-799): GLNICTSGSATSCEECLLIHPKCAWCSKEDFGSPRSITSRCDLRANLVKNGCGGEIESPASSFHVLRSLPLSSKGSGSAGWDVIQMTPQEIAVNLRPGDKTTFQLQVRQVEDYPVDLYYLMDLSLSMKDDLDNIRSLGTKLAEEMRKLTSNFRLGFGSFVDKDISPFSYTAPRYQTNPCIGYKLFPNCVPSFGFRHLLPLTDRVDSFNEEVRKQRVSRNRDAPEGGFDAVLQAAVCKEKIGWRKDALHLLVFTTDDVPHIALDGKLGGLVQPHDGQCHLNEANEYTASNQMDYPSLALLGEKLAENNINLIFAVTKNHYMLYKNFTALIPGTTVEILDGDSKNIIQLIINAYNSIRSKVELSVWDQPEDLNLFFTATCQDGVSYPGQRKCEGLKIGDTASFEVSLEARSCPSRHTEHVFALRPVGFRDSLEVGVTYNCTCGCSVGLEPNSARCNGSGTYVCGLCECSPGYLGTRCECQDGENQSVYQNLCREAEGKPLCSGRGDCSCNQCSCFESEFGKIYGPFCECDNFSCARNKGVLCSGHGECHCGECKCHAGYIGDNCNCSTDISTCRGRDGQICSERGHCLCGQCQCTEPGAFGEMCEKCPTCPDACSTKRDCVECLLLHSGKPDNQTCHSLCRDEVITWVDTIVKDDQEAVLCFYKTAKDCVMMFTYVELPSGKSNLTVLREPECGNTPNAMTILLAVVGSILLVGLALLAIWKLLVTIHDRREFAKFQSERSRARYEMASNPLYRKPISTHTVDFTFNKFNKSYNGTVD
Test: In Vitro Solid Phase Purified αcβ5 Binding Assay (vitronectin/αVβ5)
Conditions: vitronectin binding to immobilized purified human αVβ5; mean ± spread; read-out: αvβ5 IC50
Assay readout: IC50 (nM)

• COc1ccc(C(CCC2CCN(C(=O)CCCNc3ccccn3)CC2)CC(=O)O)cn1 (centres unmarked) [Cpd 25] = 773

a: O=C(O)CC(CC1CCN(C(=O)CCc2ccc3c(n2)NCCC3)CC1)C1CCOC1 (racemic) [Cpd 62]
b: CN(C)c1cccc(C(CC(=O)O)CC2CCN(C(=O)CCc3ccc4c(n3)NCCC4)CC2)c1 (racemic) [Cpd 75]
c: O=C(O)CC(CC1CCN(C(=O)CCc2ccc3c(n2)NCCC3)CC1)c1ccc2ccccc2c1 (single isomer, unassigned) [Cpd 56a]
# sort list by recorded IC50, greatest to least Answer format: the labels, in the requested order.
a, b, c

----------
Here the recorded pIC50 is given for each entry.
Target: human purified αVβ5 (Homo sapiens, UniProt P06756+P18084)
Construct: purchased Chemicon International, Inc
Test: In Vitro Solid Phase Purified αcβ5 Binding Assay (vitronectin/αVβ5)
Conditions: vitronectin binding to immobilized purified human αVβ5; mean ± spread; read-out: αvβ5 IC50
Recall that pIC50 is obtained by taking minus log10 of the concentration measured in molar.

- O=C(O)CC(CC1CCN(C(=O)CCc2ccc3c(n2)NCCC3)CC1)C1CNc2ccccc2C1 (single isomer, unassigned) [Cpd 19-3]: 5.93

# next compound below
Form field: reported pIC50 of O=C(O)CC(CC1CCN(C(=O)CCc2ccc3c(n2)NCCC3)CC1)C1CNc2ccccc2C1 (single isomer, unassigned) [Cpd 19-4]
8.12

----------
Target: human purified αVβ5 (Homo sapiens, UniProt P06756+P18084)
Construct: purchased Chemicon International, Inc
Assay: In Vitro Solid Phase Purified αcβ5 Binding Assay (vitronectin/αVβ5)
Conditions: vitronectin binding to immobilized purified human αVβ5; mean ± spread; read-out: αvβ5 IC50
Assay readout: IC50 (nM)
Entry rule: numbers only, all in nM.

Example entries begin here.
- COc1ccc(C(CC(=O)O)C2CCN(C(=O)CCCc3ccc4c(n3)NCCC4)CC2)cn1 (centres unmarked): 31.3
- O=C(O)CC(CC1CCN(C(=O)CCc2ccc3c(n2)NCCC3)CC1)C1CNc2ccccc2C1 (single isomer, unassigned) [Cpd 19-1]: 1120
- O=C(O)CC(CC1CCN(C(=O)CCc2ccc3c(n2)NCCC3)CC1)C1CNc2ccccc2C1 (single isomer, unassigned) [Cpd 19-2]: 9.2

Hi! What's the reported IC50 for O=C(O)CC(CC1CCN(C(=O)CCc2ccc3c(n2)NCCC3)CC1)C1CNc2ccccc2C1 (centres unmarked) [Cpd 19] on human purified αVβ5 (Homo sapiens, UniProt P06756+P18084)?
17.1

----------
Target: GP IIb/IIIa (Homo sapiens, UniProt P05106+P08514)
Test: In Vitro Solid Phase Purified GP IIb/IIIa Binding Assay (biotinylated fibrinogen)
Settings: biotinylated fibrinogen binding to immobilized purified GP IIb/IIIa; mean ± spread; read-out: αIIbβ3 IC50
pIC50: −log10 of the molar value.
Here the recorded pIC50 is given for each entry.

* CCCCCCCCOC(=O)CCCC1CCN(C(=O)CCc2ccc3c(n2)NCCC3)CC1 | < 4.30
* O=C(O)CC(CC1CCN(C(=O)CCc2ccc3c(n2)NCCC3)CC1)c1cccc(C(F)(F)F)c1 (stereo not drawn) | < 4.30

Form field: reported pIC50 of O=C(O)CC(CC1CCN(C(=O)CCc2ccc3c(n2)NCCC3)CC1)C1CNc2ccccc2C1 (single isomer, unassigned) [Cpd 19-1]
< 4.30

----------
Biological target: GP IIb/IIIa (Homo sapiens, UniProt P05106+P08514)
Test: In Vitro Solid Phase Purified GP IIb/IIIa Binding Assay (biotinylated fibrinogen)
Settings: biotinylated fibrinogen binding to immobilized purified GP IIb/IIIa; mean ± spread; read-out: αIIbβ3 IC50
pIC50: −log10 of the molar value.
Assay readout: pIC50

Form field: reported pIC50 of CN(C)c1cccc(C(CC(=O)O)CC2CCN(C(=O)CCc3ccc4c(n3)NCCC4)CC2)c1 (racemic)
< 4.30

Form field: reported pIC50 of O=C(O)CC(CC1CCN(C(=O)CCc2ccc3c(n2)NCCC3)CC1)C1CCOC1 (racemic)
< 4.30

Form field: reported pIC50 of O=C(O)CC(CC1CCN(C(=O)CCc2ccc3c(n2)NCCC3)CC1)c1cc(F)cc(F)c1 (stereo not drawn)
< 4.30

Values from patent US7879881B2
